Values from BindingDB's records for PubMed 30125723

biological target: alpha-glucosidase (Saccharomyces cerevisiae); assay: Inhibition of Saccharomyces cerevisiae alpha-glucosidase activity using pNPG as substrate
measurement-name: pIC50
Give bare numbers, as −log10 of the molar value.

Ask: Given the molecule "O=C(CO)CCC(=O)c1nc(C(=O)O)cc2c1[nH]c1ccccc12" , what is its reported pIC50?
Reply: 7.20
